- target-or-system: human TLR8 (Homo sapiens, UniProt Q9NR97)
- Sequence (Q9NR97 27-1041): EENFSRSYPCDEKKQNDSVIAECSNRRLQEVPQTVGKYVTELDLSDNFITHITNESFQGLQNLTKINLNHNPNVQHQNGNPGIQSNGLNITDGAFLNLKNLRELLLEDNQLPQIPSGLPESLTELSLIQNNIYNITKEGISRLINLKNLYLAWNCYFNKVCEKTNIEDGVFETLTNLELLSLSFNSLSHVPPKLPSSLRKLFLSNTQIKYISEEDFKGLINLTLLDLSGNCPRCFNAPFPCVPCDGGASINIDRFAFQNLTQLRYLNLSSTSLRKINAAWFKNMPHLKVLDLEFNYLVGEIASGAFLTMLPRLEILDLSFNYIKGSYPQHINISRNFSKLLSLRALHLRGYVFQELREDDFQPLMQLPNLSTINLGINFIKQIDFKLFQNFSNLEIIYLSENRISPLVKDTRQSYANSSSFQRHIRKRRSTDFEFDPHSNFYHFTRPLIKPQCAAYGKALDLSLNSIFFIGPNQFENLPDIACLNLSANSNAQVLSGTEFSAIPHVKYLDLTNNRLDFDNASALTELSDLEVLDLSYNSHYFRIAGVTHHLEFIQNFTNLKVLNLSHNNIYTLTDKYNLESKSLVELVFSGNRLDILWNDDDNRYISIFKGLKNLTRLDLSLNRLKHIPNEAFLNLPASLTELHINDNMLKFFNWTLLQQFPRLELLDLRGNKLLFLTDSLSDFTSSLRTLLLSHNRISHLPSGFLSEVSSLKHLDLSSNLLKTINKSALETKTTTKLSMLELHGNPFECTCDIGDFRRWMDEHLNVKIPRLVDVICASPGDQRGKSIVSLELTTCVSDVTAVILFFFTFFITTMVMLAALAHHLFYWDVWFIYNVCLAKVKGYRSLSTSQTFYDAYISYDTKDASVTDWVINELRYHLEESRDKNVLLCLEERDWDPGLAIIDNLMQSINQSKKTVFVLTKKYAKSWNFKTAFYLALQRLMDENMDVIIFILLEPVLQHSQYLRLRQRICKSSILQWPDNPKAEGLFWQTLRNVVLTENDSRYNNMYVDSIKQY
- procedure-details: TLR8 inhibition reporter assay (HEK-Blue cells, SEAP reporter, R848 stimulation)
- test-context: HEK-Blue cells overexpressing human TLR8, SEAP reporter, R848 15.9 μM
Here the recorded IC50 is given for each entry.
experimental-endpoint: IC50

Cc1cc(-c2[nH]c3ccc(C4CN(C)C(C)(C)CO4)cc3c2C(C)C)cn2ncnc12 (single isomer, unassigned) [Example 376] = 2.1 nM
COc1cc(-c2[nH]c3ccc(C4CCC(N5CC(F)(F)C5)CC4)cc3c2C(C)C)cn2ncnc12 (stereo not shown) [Example 18] = 38 nM
COc1cc(-c2[nH]c3ccc(C4CN(CC(=O)N(C)C)C4)cc3c2C(C)C)cn2ncnc12 = 66 nM
CNC(=O)CN1CCOC(c2ccc3[nH]c(-c4cc(OC)c5ncnn5c4)c(C(C)C)c3c2)C1 (stereo not shown) [Example 310] = 57 nM
Cc1cc(-c2[nH]c3ccc(C4CCCCC4)cc3c2C(C)C)cn(C)c1=O = 3130 nM
Cc1cc(-c2[nH]c3ccc(C4CCCNC4)cc3c2C(C)C)ccn1 (stereo not shown) [Example 185] = 1.9 nM
Cc1cc(-c2[nH]c3ccc(C4CCC(C(=O)N5CCOCC5)CC4)cc3c2C(C)C)cn2ncnc12 (stereo not shown) = 59 nM
COc1cc(-c2[nH]c3ccc(C4CCCN(CC(C)(C)O)C4)cc3c2C(C)C)cn2ncnc12 (stereo not shown) [Example 249] = 1.2 nM
Cc1cc(-c2[nH]c3ccc(C4CN(C(=O)CN(C)C)CCO4)cc3c2C(C)C)cn2ncnc12 (stereo not shown) [Example 328] = 8.2 nM
CCN(C)CC(=O)N1CCOC(c2ccc3[nH]c(-c4cc(OC)c5ncnn5c4)c(C(C)C)c3c2)C1 (stereo not shown) = 4.7 nM
COc1cc(-c2[nH]c3ccc(C4CCC(NS(C)(=O)=O)CC4)cc3c2C(C)C)cn2ncnc12 (stereo not shown) = 9.8 nM
Cc1c(-c2[nH]c3ccc(C4CC5CNCC5C4)cc3c2C(C)C)cn2cnnc2c1C (stereo not shown) = 127 nM
COc1cc(-c2[nH]c3ccc(C4CCC(N)CC4)cc3c2C(C)C)cn2ncnc12 (single isomer, unassigned) [Example 2] = 1.1 nM
CNC(=O)CN1CC(c2ccc3[nH]c(-c4cc(OC)c5ncnn5c4)c(C(C)C)c3c2)C1 = 4 nM
COc1cc(-c2[nH]c3ccc(C4CC(N(C)CCS(C)(=O)=O)C4)cc3c2C(C)C)cn2ncnc12 (stereo not shown) [Example 583] = 0.32 nM
CNCC(=O)N1CCOC(c2ccc3[nH]c(-c4cc(OC)c5ncnn5c4)c(C(C)C)c3c2)C1 (stereo not shown) [Example 342] = 16 nM
Cc1cc(-c2[nH]c3ccc(CCN4CCS(=O)(=O)CC4)cc3c2C(C)C)cc(C)n1 = 86 nM
Cc1cc(-c2[nH]c3ccc(C4CN(CC(N)=O)CCO4)cc3c2C(C)C)cc(C)n1 (stereo not shown) [Example 327] = 48 nM
Cc1cc(-c2[nH]c3ccc(C4CN(CC(C)(C)O)CCO4)cc3c2C(C)C)cc(C)n1 (stereo not shown) [Example 358] = 1.9 nM
CCc1c(-c2ccnc(C)c2)[nH]c2ccc(CNC(=O)C3CCN(C)CC3)cc12 = 70 nM
Cc1c(-c2[nH]c3ccc(C4CNC4)cc3c2C(C)C)cn2cnnc2c1C = 137 nM
COc1cc(-c2[nH]c3ccc(C4CCC(NC(C)=O)CC4)cc3c2C(C)C)cn2ncnc12 (single isomer, unassigned) [Example 115] = 13 nM
Cc1cc(-c2[nH]c3ccc(C4CCCN(C(=O)C5CNC5)C4)cc3c2C(C)C)cc(C)n1 (stereo not shown) = 123 nM
Cc1cc(-c2[nH]c3ccc(C4CN5CCC4CC5)cc3c2C(C)C)cn2ncnc12 (stereo not shown) [Example 364] = 3.8 nM
Cc1c(-c2[nH]c3ccc(C4CN(C)C4)cc3c2C(C)C)cn2cnnc2c1C = 42 nM
Cc1c(-c2[nH]c3ccc(C4CCCNC4)cc3c2C(C)C)cn2ncnc2c1C (stereo not shown) [Example 189] = 0.23 nM
Cc1cc(-c2[nH]c3ccc(C4CCC(N)CC4)cc3c2C(C)C)cc(C)n1 (stereo not shown) = 14 nM
CNC(=O)CN1CCCC(c2ccc3[nH]c(-c4cc(OC)c5ncnn5c4)c(C(C)C)c3c2)C1 (stereo not shown) [Example 223] = 13 nM
Cc1cc(-c2[nH]c3ccc(C4CCC(C)(O)CC4)cc3c2C(C)C)cc(C)n1 (single isomer, unassigned) [Example 170] = 590 nM
COc1cc(-c2[nH]c3ccc(C4CCC(N(C)C(=O)CN(C)C)CC4)cc3c2C(C)C)cn2ncnc12 (stereo not shown) = 5.1 nM
CCN(C)CC(=O)NC1CCC(c2ccc3[nH]c(-c4cc(OC)c5ncnn5c4)c(C(C)C)c3c2)CC1 (stereo not shown) = 1.5 nM

----------
- target-or-system: human TLR7 (Homo sapiens, UniProt Q9NYK1)
- Sequence (Q9NYK1 27-1049): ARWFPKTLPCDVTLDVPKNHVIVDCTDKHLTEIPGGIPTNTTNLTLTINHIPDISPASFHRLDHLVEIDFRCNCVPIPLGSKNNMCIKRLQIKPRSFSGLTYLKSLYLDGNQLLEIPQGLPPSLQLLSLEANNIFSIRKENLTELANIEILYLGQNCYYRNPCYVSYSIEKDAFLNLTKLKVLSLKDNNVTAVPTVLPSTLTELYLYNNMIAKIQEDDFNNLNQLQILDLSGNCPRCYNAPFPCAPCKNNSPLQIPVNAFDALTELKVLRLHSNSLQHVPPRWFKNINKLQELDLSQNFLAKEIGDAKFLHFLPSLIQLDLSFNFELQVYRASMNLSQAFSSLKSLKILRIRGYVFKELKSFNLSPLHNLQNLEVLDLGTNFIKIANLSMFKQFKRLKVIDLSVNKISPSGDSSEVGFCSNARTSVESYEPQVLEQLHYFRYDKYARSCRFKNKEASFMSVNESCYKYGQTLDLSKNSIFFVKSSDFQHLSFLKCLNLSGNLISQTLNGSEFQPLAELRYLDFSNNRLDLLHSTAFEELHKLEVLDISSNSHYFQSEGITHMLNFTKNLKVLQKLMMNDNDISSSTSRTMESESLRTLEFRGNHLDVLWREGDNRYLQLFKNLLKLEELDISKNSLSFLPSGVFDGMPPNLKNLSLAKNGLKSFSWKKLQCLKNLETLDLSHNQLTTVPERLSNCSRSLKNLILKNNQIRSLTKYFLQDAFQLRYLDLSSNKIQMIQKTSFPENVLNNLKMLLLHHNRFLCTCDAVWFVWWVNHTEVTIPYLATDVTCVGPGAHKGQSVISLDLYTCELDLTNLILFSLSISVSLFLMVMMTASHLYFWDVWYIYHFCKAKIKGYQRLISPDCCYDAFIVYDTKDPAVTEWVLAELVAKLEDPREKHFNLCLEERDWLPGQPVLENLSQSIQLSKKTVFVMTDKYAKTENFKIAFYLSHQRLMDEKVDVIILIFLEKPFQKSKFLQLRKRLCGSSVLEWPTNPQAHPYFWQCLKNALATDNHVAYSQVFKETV
- procedure-details: TLR7 inhibition reporter assay (HEK-Blue cells, SEAP reporter, gardiquimod stimulation)
- test-context: HEK-Blue cells overexpressing human TLR7, SEAP reporter, gardiquimod 7.5 μM
pIC50: −log10 of the molar value.
We begin with a simple list: items and their reported pIC50.
experimental-endpoint: pIC50

Cc1c(-c2[nH]c3ccc(C4CNC4)cc3c2C(C)C)cn(C)c(=O)c1C [Example 486] = 7.72
COc1cc(-c2[nH]c3ccc(CCC4CN(C)C4)cc3c2C(C)C)cn2ncnc12 [Example 438] = 8.30
COc1cc(-c2[nH]c3ccc(CCC4CNC4)cc3c2C(C)C)cn2ncnc12 [Example 440] = 8.40
COc1cc(-c2[nH]c3ccc(C4CCCN(C(C)C)C4)cc3c2C(C)C)cn2ncnc12 (centres unmarked) [Example 236] = 9.00
COc1cc(-c2[nH]c3ccc(C4CCC(NC(=O)CC(F)(F)F)CC4)cc3c2C(C)C)cn2ncnc12 (centres unmarked) [Example 118] = 8.70
Cc1cc(-c2[nH]c3ccc([C@H]4C[C@H]4C(=O)N4CC5CC4CN5)cc3c2C(C)C)ccn1 (some centres unmarked) [Example 454] = 7.02
CN[C@@H](C)C(=O)N1CCCC(c2ccc3[nH]c(-c4cc(C)nc(C)c4)c(C(C)C)c3c2)C1 (some centres unmarked) [Example 219] = 8.05
Cc1cc(-c2[nH]c3ccc(C4CCC(O)CC4)cc3c2C(C)C)cc(C)n1 (single isomer, unassigned) [Example 172] = 8.10
COc1cc(-c2[nH]c3ccc(C4CCC(NC(=O)CN(C)C)CC4)cc3c2C(C)C)cn2ncnc12 (centres unmarked) [Example 122] = 9.62
COc1cc(-c2[nH]c3ccc(C4CCC(NC5(C)COC5)CC4)cc3c2C(C)C)cn2ncnc12 (single isomer, unassigned) [Example 45] = 9.00
COc1cc(-c2[nH]c3ccc(C4CCC(N(C)C(=O)CN(C)C)CC4)cc3c2C(C)C)cn2ncnc12 (centres unmarked) [Example 147] = 9.37
Cc1cc(-c2[nH]c3ccc(C4CCC(O)(C(F)(F)F)CC4)cc3c2C(C)C)cc(C)n1 (centres unmarked) [Example 175] = 7.43
COc1cc(-c2[nH]c3ccc(C4CCC(N5CC(O)C5)CC4)cc3c2C(C)C)cn2ncnc12 (single isomer, unassigned) [Example 20] = 9.52
Cc1c(-c2[nH]c3ccc(C4CC(NCCS(C)(=O)=O)C4)cc3c2C(C)C)cn(C)c(=O)c1C (centres unmarked) [Example 494] = 8.30
CNC(=O)CN1CCOC(c2ccc3[nH]c(-c4cc(C)nc(C)c4)c(C(C)C)c3c2)C1 (centres unmarked) [Example 325] = 7.54
Cc1cc(-c2[nH]c3ccc(C4CN(CCS(C)(=O)=O)CCO4)cc3c2C(C)C)cc(C)n1 (centres unmarked) [Example 353] = 7.02
COc1cc(-c2[nH]c3ccc(C4CCCN(CC(C)(C)O)C4)cc3c2C(C)C)cn2ncnc12 (centres unmarked) [Example 248] = 9.12
COc1cc(-c2[nH]c3ccc(C4CCC(NC(=O)CNC5COC5)CC4)cc3c2C(C)C)cn2ncnc12 (centres unmarked) [Example 139] = 7.74
CNCC(=O)N1CC(c2ccc3[nH]c(-c4cc(C)c5ncnn5c4)c(C(C)C)c3c2)C1 [Example 267] = 9.02
Cc1cc(-c2[nH]c3ccc(C4CCCN(CC(=O)N(C)C)C4)cc3c2C(C)C)cc(C)n1 (centres unmarked) [Example 235] = 7.40
COc1cc(-c2[nH]c3ccc(C4CCC(N5CC(F)C5)CC4)cc3c2C(C)C)cn2ncnc12 (centres unmarked) [Example 23] = 8.70
CCN(CC)CC(=O)NC1CCC(c2ccc3[nH]c(-c4cn5ncnc5c(C)c4C)c(C(C)C)c3c2)CC1 (centres unmarked) [Example 126] = 9.29
Cc1cc(-c2[nH]c3ccc(C4CN(C5COC5)CCO4)cc3c2C(C)C)cn2ncnc12 (centres unmarked) [Example 289] = 8.05
CNCC(=O)NC1CCC(c2ccc3[nH]c(-c4cc(C)nc(C)c4)c(C(C)C)c3c2)CC1 (single isomer, unassigned) [Example 130] = 8.30
COc1cc(-c2[nH]c3ccc(C4CCC(NC5(C)COC5)CC4)cc3c2C(C)C)cn2ncnc12 (single isomer, unassigned) [Example 44] = 9.68
Cc1cc(-c2[nH]c3ccc([C@@H]4C[C@H]4C(=O)N(C)C4CC5CCN4CC5)cc3c2C(C)C)ccn1 (some centres unmarked) [Example 459] = 7.72
CNCC(=O)N1CCOC(c2ccc3[nH]c(-c4cc(OC)c5ncnn5c4)c(C(C)C)c3c2)C1 (centres unmarked) [Example 339] = 9.00
COc1cc(-c2[nH]c3ccc(C4CN(C(=O)CN(C)C)CCO4)cc3c2C(C)C)cn2ncnc12 (centres unmarked) [Example 332] = 9.19
COc1cc(-c2[nH]c3ccc(C4CCC(N(C)CC(F)F)CC4)cc3c2C(C)C)cn2ncnc12 (centres unmarked) [Example 74] = 8.52
